All figures here come from ChEMBL document CHEMBL1817584.

Tested on: Pseudomonas aeruginosa
measurement.notes: Antibacterial activity against Pseudomonas aeruginosa ATCC 27853 after 24 hrs by twofold serial dilution method
Assay type: functional
test.parameters: ATCC 27853, 24 h
property: MIC (mg/L)
Please reply with the bare figure in mg/L and do not write the unit itself.

O=C1c2cccc3c(Br)ccc(c23)C(=O)N1CCC[n+]1cnn(CC(O)(Cn2c[n+](CCCN3C(=O)c4cccc5c(Br)ccc(c45)C3=O)cn2)c2ccc(F)cc2F)c1.[Br-].[Br-]    16
OC(Cn1c[n+](Cc2ccccc2)cn1)(Cn1c[n+](Cc2ccccc2)cn1)c1ccc(F)cc1F.[Br-].[Br-]    128
CCCCCCCCCCCC[n+]1cnn(CC(O)(Cn2c[n+](CCCCCCCCCCCC)cn2)c2ccc(F)cc2F)c1.[Br-].[Br-]    8
CCCCCCCC[n+]1cnn(CC(O)(Cn2c[n+](CCCCCCCC)cn2)c2ccc(F)cc2F)c1.[Br-].[Br-]    8
F[P-](F)(F)(F)(F)F.F[P-](F)(F)(F)(F)F.OC(Cn1c[n+](Cc2ccc(Cl)cc2Cl)cn1)(Cn1c[n+](Cc2ccc(Cl)cc2Cl)cn1)c1ccc(F)cc1F    64

Briefly, MIC measured for `Fc1ccc(Cn2c[n+](Cc3ccc(Cl)cc3Cl)cn2)c(F)c1.[Br-]` : 128

Briefly, MIC measured for `CCCC[n+]1cnn(CC(O)(Cn2c[n+](CCCC)cn2)c2ccc(F)cc2F)c1.[Br-].[Br-]` : 256

Briefly, MIC measured for `CCCCCCCC[n+]1cnn(Cc2ccc(F)cc2F)c1.[Br-]` : 16
